- Test system: Hs-578T
- Protocol details: NCI tumour cell line growth inhibition, 48 h
Calls of active or inactive are those of the source. Rule as the data show it: active = GI50 up to about 1.1 µM and inactive = higher.
Mark one answer only. Choices: T (active), F (inactive)

CC1=C(O)C(O)=C(C2=C(O)C(O)=C(C)C(=O)C2=O)C(=O)C1=O; F
CCCCCCc1cc2cc(-c3cn4ccccc4n3)c(=O)oc2cc1O; F
NC1=CN2c3ccccc3N(CC(=O)N3CCOCC3)C2C=C1 (stereo unspecified); F
CCOP1(=O)CC(C)=C(Cl)C(O)C1 (stereo unspecified); F
O=C1c2ccccc2C(=O)N1CCc1nc(-c2ccccc2)c[nH]1; F

Exam item: Can you look up the reported call for `C[C@@H]1C[C@H]2OC(=O)[C@@]3(C)CCC[C@@](C)([C@@H]23)[C@@]1(O)CCc1ccoc1` for me?
Marked response: F

Exam item: Can you look up the reported call for `NC(=O)NN=C1Cc2ccccc2C1` for me?
Marked response: F

Exam item: Can you look up the reported call for `O=C(Nc1cccc2nsnc12)c1cc2c(cc1Cl)Sc1nccn1S2(=O)=O` for me?
Marked response: F

Exam item: Can you look up the reported call for `CCN(CC)CCC(=O)c1ccc(Cl)c(Cl)c1` for me?
Marked response: F

Exam item: Can you look up the reported call for `CN(C)c1ccc(/N=N/c2ccc3[nH]cnc3c2)cc1` for me?
Marked response: F

Exam item: Can you look up the reported call for O=C(CC(=O)N(C(=O)/C=C\c1ccccc1)c1ccc(Cl)cc1)N1N=C(c2ccccc2)C(/N=N/c2cccc([N+](=O)[O-])c2)C1=O (stereo unspecified) for me?
Marked response: F

Exam item: Can you look up the reported call for `O=C(Nn1cnn2c(=O)c3ccccc3nc2c1=O)c1ccccc1` for me?
Marked response: F

Exam item: Can you look up the reported call for COc1cc(C(c2cccc3ccccc23)N2C(=O)CCC2C(=O)NCc2ccccc2)cc(OC)c1OC (stereo unspecified) for me?
Marked response: F

* * *

- Test system: SF-295
- Protocol details: NCI tumour cell line growth inhibition, 48 h
The source made the active and inactive calls. Cut-off read from the data, not from the text of the source: active = GI50 up to about 1.1 µM and inactive = higher.
Mark one answer only. Choices: YES = active, NO = inactive

Exam item: Can you look up the reported call for `BrCCC[P+](c1ccccc1)(c1ccccc1)c1ccccc1` for me?
Marked response: NO

* * *

- System: HCT-15
Square brackets hold non-standard residues; d marks the D form. Peptide text beside a SMILES is read from it. * marks the point of attachment. AllylGly = C=CC[CH](N)C(=O)O; Boc = CC(C)(C)OC(=O)*; OtBu = CC(C)(C)O*
Binary call on GI50 with cut-off 20 µM: strictly below means satisfied, and equality or higher means not satisfied.

Would you please look over these solved cases?
CS/C(=N/C#N)NCCc1c[nH]c2ccccc12; not satisfied
O=C1C(=O)N(c2cccc(C(F)(F)F)c2)C(=S)N1c1ccccc1; satisfied
CC1(C)COC(c2cccc3c2C(=O)c2cccc(Cl)c2-3)=N1; not satisfied
CC1C2CCC3C(O)C2(CC(O)C2(O)C1CC(O)C2(C)C)CC3(C)O (stereo unspecified); not satisfied
COc1cc(Nc2c(C#N)[n+]([O-])c3ccccc3[n+]2[O-])cc(OC)c1OC; satisfied

Now take the following compound into account.
Exam item: Below 20 µM on GI50? Entry C=CCC(NC(=O)C(CC(=O)OC(C)(C)C)NC(=O)OC(C)(C)C)C(=O)OC (stereo unspecified) (Boc-Asp(OtBu)-[AllylGly]-OMe; configuration not given here)
Marked response: not satisfied
